Can you tell me MTD for the items I'm about to list?
System: Mus musculus
Assay: Maximally tolerated dose was measured after ip administration of compound, 24 hr after tumor implantation.
Format: functional
Respond numerically; units are µM/kg and should not be typed.

Request: // lookup MTD | system=Mus musculus | key= CSc1ccccc1P(CCP(c1ccccc1SC)c1ccccc1SC)c1ccccc1SC
Result: 110

Request: Form field - read-out: MTD; system: Mus musculus; submitted item: O=[N+]([O-])[O][Ag].O=[N+]([O-])[O][Ag].c1ccc(P(CCP(c2ccccc2)c2ccccc2)c2ccccc2)cc1
Result: 8

Request: Record Cc1ccc(P(CCP(c2ccc(C)cc2)c2ccc(C)cc2)c2ccc(C)cc2)cc1 : what is its MTD with Mus musculus?
Result: 26

Request: What value of MTD on Mus musculus does CC(C(C)P(c1ccccc1)c1ccccc1)P(c1ccccc1)c1ccccc1 (stereo not given) have?
Result: 113

Request: Observed MTD on Mus musculus for c1csc(P(CCP(c2cccs2)c2cccs2)c2cccs2)c1 , please.
Result: 38

Request: Missing value: MTD, Mus musculus, entry C(=C/P(c1ccccc1)c1ccccc1)/P(c1ccccc1)c1ccccc1 . Fill in?
Result: 61

Request: Record lookup: for Mus musculus, what MTD belongs to c1cc(P(CCP(c2ccncc2)c2ccncc2)c2ccncc2)ccn1 ?
Result: 80

Request: Form field - read-out: MTD; system: Mus musculus; submitted item: CC(CP(c1ccccc1)c1ccccc1)P(c1ccccc1)c1ccccc1 (stereo not given)
Result: 78

Request: What MTD appears in the records for this compound with Mus musculus? c1ccc(SCCSc2ccccc2)cc1
Result: 1000

Request: Fill in the recorded MTD for this compound, with Mus musculus as test system: O=P(CCP(=O)(c1ccccc1)c1ccccc1)(c1ccccc1)c1ccccc1
Result: 300
